Each entry below lists one item and its recorded Relative affinity of the bond (RAB), Progestogen, 24 H value.
# Study Target: Progestogen Receptor of Rabbit's Uterus (Oryctolagus cuniculus)
# Construct: The uteri were removed, weighed and homogenized at 0° C; from tissue; host or cells: uterine cytosol (150,000 g supernatant) of estradiol-primed immature rabbits
# Sequence (P06186 whole entry): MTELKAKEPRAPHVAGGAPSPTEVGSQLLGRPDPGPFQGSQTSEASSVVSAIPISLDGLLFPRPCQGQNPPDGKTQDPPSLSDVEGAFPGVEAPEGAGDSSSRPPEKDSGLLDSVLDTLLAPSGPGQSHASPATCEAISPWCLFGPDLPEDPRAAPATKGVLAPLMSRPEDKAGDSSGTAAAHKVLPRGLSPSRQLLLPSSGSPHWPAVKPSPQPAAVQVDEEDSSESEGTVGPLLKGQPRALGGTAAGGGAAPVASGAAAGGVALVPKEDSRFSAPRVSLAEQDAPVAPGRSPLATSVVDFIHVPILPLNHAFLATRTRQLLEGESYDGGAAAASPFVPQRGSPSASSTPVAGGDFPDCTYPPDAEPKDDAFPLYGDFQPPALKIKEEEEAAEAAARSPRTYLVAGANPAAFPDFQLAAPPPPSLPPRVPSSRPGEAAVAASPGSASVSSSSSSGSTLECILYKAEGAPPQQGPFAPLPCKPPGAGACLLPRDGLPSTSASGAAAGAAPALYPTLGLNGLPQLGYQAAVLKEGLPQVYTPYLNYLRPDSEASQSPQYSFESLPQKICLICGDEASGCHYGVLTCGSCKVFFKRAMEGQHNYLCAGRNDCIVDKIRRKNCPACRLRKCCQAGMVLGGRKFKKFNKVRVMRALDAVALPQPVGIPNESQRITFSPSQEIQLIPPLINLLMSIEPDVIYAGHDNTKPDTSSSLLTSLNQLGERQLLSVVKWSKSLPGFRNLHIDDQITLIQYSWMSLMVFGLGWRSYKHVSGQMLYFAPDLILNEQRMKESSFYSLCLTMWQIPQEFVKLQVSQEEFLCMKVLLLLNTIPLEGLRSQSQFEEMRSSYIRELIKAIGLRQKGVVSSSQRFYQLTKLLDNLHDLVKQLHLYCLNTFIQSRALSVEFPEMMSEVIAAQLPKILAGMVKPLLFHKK
# Method Description: Relative affinity of the bond, progestogen receptor (tritiated product R displacement)
# Type: binding
# Protocol Conditions: incubation 24 H at 0° C.; RAB=100(CH)/(CX)
Provide a numeric answer; units are not to be included.

// known answers, use as guide
{"Chemical String": "CN(C)CCN(C)C(=O)CCCCCCCCCC[C@H]1C[C@]2(C)[C@@H](O)CC[C@H]2[C@@H]2CCC3=CC(=O)CCC3=C12", "Experimental Result": 7}
{"Chemical String": "CC(C)N(C)C(=O)CCCCCCCCCC[C@H]1C[C@]2(C)[C@@H](O)CC[C@H]2[C@@H]2CCc3cc(O)ccc3[C@@H]12", "Experimental Result": 2}

// next item, Relative affinity of the bond (RAB), Progestogen, 24 H requested
Lookup: Please look up its Relative affinity of the bond (RAB), Progestogen, 24 H: "CCCCN(C)C(=O)CCCCCCCCCC[C@H]1C[C@]2(C)[C@@H](O)CC[C@H]2[C@@H]2CCc3cc(O)ccc3[C@@H]12"
Found: 1.8

* * *

# Study Target: Estrogenic Receptor of Mouse Uterus (Mus musculus, UniProt P19785)
# Construct: their uteri were removed, then homogenized at 0° C; from tissue; host or cells: uterine cytosol (105,000 g supernatant) of immature female mice
# Sequence (P19785 whole entry): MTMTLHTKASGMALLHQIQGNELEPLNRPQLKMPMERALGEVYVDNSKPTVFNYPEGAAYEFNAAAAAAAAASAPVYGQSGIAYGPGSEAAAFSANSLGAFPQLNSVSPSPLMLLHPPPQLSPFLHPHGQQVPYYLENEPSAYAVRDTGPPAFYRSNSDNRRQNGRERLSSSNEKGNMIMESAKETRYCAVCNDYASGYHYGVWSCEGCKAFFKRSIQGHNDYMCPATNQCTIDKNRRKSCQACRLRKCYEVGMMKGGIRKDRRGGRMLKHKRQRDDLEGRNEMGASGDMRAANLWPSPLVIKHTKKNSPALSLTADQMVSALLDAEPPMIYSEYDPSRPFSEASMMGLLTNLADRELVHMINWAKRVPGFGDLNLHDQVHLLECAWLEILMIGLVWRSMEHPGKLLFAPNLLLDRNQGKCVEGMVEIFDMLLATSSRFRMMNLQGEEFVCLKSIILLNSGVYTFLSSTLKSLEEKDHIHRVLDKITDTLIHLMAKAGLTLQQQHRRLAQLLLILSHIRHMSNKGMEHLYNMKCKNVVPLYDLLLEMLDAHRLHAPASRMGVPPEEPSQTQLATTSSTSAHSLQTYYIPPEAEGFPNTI
# Method Description: Relative affinity of the bond, estrogen receptor (tritiated estradiol displacement)
# Format: binding
# Protocol Conditions: incubation 6 H (second time); RAB=100(CH)/(CX)
Measured Property: Relative affinity of the bond (RAB), Oestrogen, 6 H
// print number alone

{"Chemical String": "CCCCN(C)C(=O)CCCCCCCOc1ccc([C@H]2C[C@]3(C)[C@@H](O)CC[C@H]3[C@@H]3CCc4cc(O)ccc4[C@H]32)cc1", "Experimental Result": 65}
{"Chemical String": "CN(C)CCN(C)C(=O)CCCCCCCCCC[C@H]1C[C@]2(C)[C@@H](O)CC[C@H]2[C@@H]2CCC3=CC(=O)CCC3=C12", "Experimental Result": 0.8}

Lookup: Give its Relative affinity of the bond (RAB), Oestrogen, 6 H value. Item: "CN(Cc1ccccc1)C(=O)CCCCCCCCCC[C@H]1C[C@]2(C)[C@@H](O)CC[C@H]2[C@@H]2CCC3=CC(=O)CCC3=C12"
Found: 0.01

Lookup: Do the same for "CCCCN(C)C(=O)COCCCCCC#Cc1ccc([C@H]2C[C@]3(C)[C@@H](O)CC[C@H]3[C@@H]3CCc4cc(O)ccc4[C@H]32)cc1" please
Found: 28

Lookup: Repeat for the following compound: "C#C[C@]1(O)CC[C@H]2[C@@H]3CCc4cc(O)ccc4[C@H]3[C@@H](CCCCCCCCCCC(=O)N(C)C(C)C)C[C@@]21C"
Found: 45

Lookup: # repeat for "CC(C)N(C)C(=O)COCCCCCCCC[C@H]1C[C@]2(C)[C@@H](O)CC[C@H]2[C@@H]2CCc3cc(O)ccc3[C@@H]12"
Found: 50

Lookup: Check "CCCCN(C)C(=O)COCCCCCOc1ccc([C@H]2C[C@]3(C)[C@@H](O)CC[C@H]3[C@@H]3CCc4cc(O)ccc4[C@H]32)cc1" too.
Found: 3.0

Lookup: Same read-out for "CCCCN(C)C(=O)CCCCCCCCCC[C@H]1C[C@]2(C)[C@@H](O)CC[C@H]2[C@@H]2CCc3cc(O)ccc3[C@@H]12" ?
Found: 27

Lookup: "CC(C)N(C)C(=O)CCCCCCCCCC[C@H]1C[C@]2(C)[C@@H](O)CC[C@H]2[C@@H]2CCc3cc(O)ccc3[C@@H]12" ?
Found: 60
